Attribute: revertant His+ colonies TA97
# Tested on: Salmonella enterica serovar Typhimurium TA97
# procedure-details: Salmonella/microsome assay, TA97
# settings: +S9, 1500 µM

For orientation, consider the following solved cases.
{"compound": "CC(=O)Nc1ccccc1C(F)(F)C(=O)NCC[C@@H]1C[C@H](CC(=O)OC(C)(C)C)OC(C)(C)O1 [Compound 13a]", "revertant His+ colonies TA97": "290 ± 28"}
{"compound": "CC(=O)Nc1ccc(Cl)cc1C(F)(F)C(=O)NCC[C@@H]1C[C@H](CC(=O)OC(C)(C)C)OC(C)(C)O1 [Compound 13c]", "revertant His+ colonies TA97": "261 ± 13"}
{"compound": "CC(=O)Nc1ccc(Br)cc1C(F)(F)C(=O)NCC[C@@H]1C[C@H](CC(=O)OC(C)(C)C)OC(C)(C)O1 [Compound 13d]", "revertant His+ colonies TA97": "410 ± 10"}

--- query ---
Output revertant His+ colonies TA97 of CC(=O)Nc1ccc(C)cc1C(F)(F)C(=O)NCC[C@@H]1C[C@H](CC(=O)OC(C)(C)C)OC(C)(C)O1 [Compound 13b]
288 ± 33

---

# procedure-details: in vitro
# Assay type: cell-based
# settings: mouse
measured-property: CC50 at 24 h

Output CC50 at 24 h of O=C(Cn1ccnc1[N+](=O)[O-])NCc1ccccc1 [Benznidazole, benznidazole, reference compound]
> 1000 µM

---

Attribute: revertant His+ colonies TA100
# Test system: Salmonella enterica serovar Typhimurium TA100
# procedure-details: Salmonella/microsome assay, TA100
# settings: +S9, 30 µM
The answer should be a number; do not append a unit.

{"compound": "CC(=O)Nc1ccccc1C(F)(F)C(=O)NCC[C@@H]1C[C@H](CC(=O)OC(C)(C)C)OC(C)(C)O1 [Compound 13a]", "revertant His+ colonies TA100": 241}
{"compound": "CC(=O)Nc1ccc(Cl)cc1C(F)(F)C(=O)NCC[C@@H]1C[C@H](CC(=O)OC(C)(C)C)OC(C)(C)O1 [Compound 13c]", "revertant His+ colonies TA100": 228}
{"compound": "CC(=O)Nc1ccc(C)cc1C(F)(F)C(=O)NCC[C@@H]1C[C@H](CC(=O)OC(C)(C)C)OC(C)(C)O1 [Compound 13b]", "revertant His+ colonies TA100": 228}

Provide revertant His+ colonies TA100, tested on Salmonella enterica serovar Typhimurium TA100, for CC(=O)Nc1ccc(Br)cc1C(F)(F)C(=O)NCC[C@@H]1C[C@H](CC(=O)OC(C)(C)C)OC(C)(C)O1 [Compound 13d] .
173

---

# Test system: Salmonella enterica serovar Typhimurium TA97
# procedure-details: Salmonella/microsome assay, TA97
# settings: −S9, 300 µM
measured-property: revertant His+ colonies TA97

For orientation, consider the following solved cases.
{"compound": "CC(=O)Nc1ccc(Br)cc1C(F)(F)C(=O)NCC[C@@H]1C[C@H](CC(=O)OC(C)(C)C)OC(C)(C)O1 [Compound 13d]", "revertant His+ colonies TA97": "146 ± 6"}
{"compound": "CC(=O)Nc1ccc(Cl)cc1C(F)(F)C(=O)NCC[C@@H]1C[C@H](CC(=O)OC(C)(C)C)OC(C)(C)O1 [Compound 13c]", "revertant His+ colonies TA97": "71 ± 11"}
{"compound": "CC(=O)Nc1ccc(C)cc1C(F)(F)C(=O)NCC[C@@H]1C[C@H](CC(=O)OC(C)(C)C)OC(C)(C)O1 [Compound 13b]", "revertant His+ colonies TA97": "84 ± 7"}

--- query ---
Provide revertant His+ colonies TA97, tested on Salmonella enterica serovar Typhimurium TA97, for CC(=O)Nc1ccccc1C(F)(F)C(=O)NCC[C@@H]1C[C@H](CC(=O)OC(C)(C)C)OC(C)(C)O1 [Compound 13a] .
80 ± 11
